Reported values of concentration at 6 h for individual entries
Test: Drug uptake in rat brain at 10 mg/kg, po after 6 hrs
Assay type: ADME, organism-based
Design: dose 10 mg/kg, route oral
Conditions: read-out: Drug uptake

Guide cases for concentration at 6 h, answers given:
>>> result("COc1cc(C)c2nc3[nH]nc(C)c3c(N3CCC(O)CC3)c2c1")
"< 10 ng/g"
>>> result("COc1cc(C)c2nc3[nH]nc(C)c3c(N3CCC(C(N)=O)CC3)c2c1")
"< 10 ng/g"
>>> result("COc1cc(C)c2nc3[nH]nc(C)c3c(N3CCC(N)CC3)c2c1")
"< 10 ng/g"
>>> result("COc1cc(C)c2nc3[nH]nc(C)c3c(N3CCCC(CO)C3)c2c1 (racemic)")
"< 10 ng/g"
>>> result("COc1cc(C)c2nc3[nH]nc(C)c3c(N3CCNCC3)c2c1")
"123 ng/g"

Task item: Looking for the measured concentration at 6 h of `COc1cc(C)c2nc3[nH]nc(C)c3c(N3CCN(C(N)=O)[C@@H](C)C3)c2c1` , can you help?
Reply: < 10 ng/g

Task item: Looking for the measured concentration at 6 h of `COc1cc(C)c2nc3[nH]nc(C)c3c(N3CCC(NC(N)=O)CC3)c2c1` , can you help?
Reply: < 10 ng/g

Task item: Looking for the measured concentration at 6 h of `COc1cc(C)c2nc3[nH]nc(C)c3c(NC3CCOCC3)c2c1` , can you help?
Reply: 1100 ng/g

Task item: Looking for the measured concentration at 6 h of COc1cc(C)c2nc3[nH]nc(C)c3c(N3CCOC(CO)C3)c2c1 (racemic) , can you help?
Reply: < 10 ng/g

* * *

Assay: Clearance in dog hepatocytes assessed per million of cells
Type: ADME, cell-based, Canis lupus familiaris, Hepatocyte
Conditions: read-out: CLH
PARAMETER_MEASURED: hepatocyte CLint (µL/min/1e6 cells)
Give the quantity in µL/min/1e6 cells, number only.

Task item: Looking for the measured hepatocyte CLint of `COc1cc(C)c2nc3[nH]nc(C)c3c(NC3CCOCC3)c2c1` , can you help?
Reply: 0.8

* * *

Experiment: Clearance in human hepatocytes assessed per million of cells
Format: ADME, cell-based, Hepatocyte
Settings: read-out: CLH
PARAMETER_MEASURED: hepatocyte CLint (µL/min/1e6 cells)
Give the quantity in µL/min/1e6 cells, number only.

Task item: Looking for the measured hepatocyte CLint of `COc1cc(C)c2nc3[nH]nc(C)c3c(NC3CCOCC3)c2c1` , can you help?
Reply: 1.7

* * *

Reported values of Ki for individual entries
Target: cGMP-dependent 3',5'-cyclic phosphodiesterase (Homo sapiens, UniProt O00408)
Sequence (O00408 whole entry): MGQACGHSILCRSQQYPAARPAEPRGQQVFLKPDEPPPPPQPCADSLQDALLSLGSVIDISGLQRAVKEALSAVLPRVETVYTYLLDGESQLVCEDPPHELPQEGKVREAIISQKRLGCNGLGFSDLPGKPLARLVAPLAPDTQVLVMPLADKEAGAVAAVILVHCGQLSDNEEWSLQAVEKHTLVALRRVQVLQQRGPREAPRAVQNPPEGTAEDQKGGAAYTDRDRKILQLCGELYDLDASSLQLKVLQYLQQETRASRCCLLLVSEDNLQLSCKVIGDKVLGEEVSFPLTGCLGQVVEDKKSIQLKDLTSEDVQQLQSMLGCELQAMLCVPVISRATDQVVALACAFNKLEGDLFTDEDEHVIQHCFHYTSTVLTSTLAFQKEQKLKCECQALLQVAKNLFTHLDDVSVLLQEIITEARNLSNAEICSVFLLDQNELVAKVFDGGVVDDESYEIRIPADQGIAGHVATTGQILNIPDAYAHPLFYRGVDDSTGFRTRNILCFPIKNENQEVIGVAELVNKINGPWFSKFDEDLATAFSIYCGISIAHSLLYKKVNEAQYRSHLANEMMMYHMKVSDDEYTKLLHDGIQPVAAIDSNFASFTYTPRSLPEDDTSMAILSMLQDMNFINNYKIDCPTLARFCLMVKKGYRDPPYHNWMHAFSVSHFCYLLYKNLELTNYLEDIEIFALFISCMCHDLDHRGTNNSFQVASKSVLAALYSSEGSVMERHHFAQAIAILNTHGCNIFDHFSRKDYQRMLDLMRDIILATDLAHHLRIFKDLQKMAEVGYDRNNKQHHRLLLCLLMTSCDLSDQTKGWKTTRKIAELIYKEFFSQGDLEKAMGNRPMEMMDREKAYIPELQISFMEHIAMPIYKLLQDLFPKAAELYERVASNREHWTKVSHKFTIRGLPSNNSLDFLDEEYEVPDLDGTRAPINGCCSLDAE
Experiment: Inhibition of recombinant human PDE2 using [3H]cAMP as substrate by scintillation proximity assay

>>> result("COc1cc(C)c2nc3[nH]nc(C)c3c(N3CCNCC3)c2c1")
"≥ 0.77 µM"

Note: attention shifts to another entry.
Task item: Which Ki is reported with cGMP-dependent 3',5'-cyclic phosphodiesterase (Homo sapiens, UniProt O00408) for this entry: `COc1cc(C)c2nc3[nH]nc(C)c3c(NC3CCOCC3)c2c1` ?
Reply: ≥ 4.79 µM

* * *

Biological target: Dual 3',5'-cyclic-AMP and -GMP phosphodiesterase 11A (Homo sapiens)
Sequence (Q9HCR9 whole entry): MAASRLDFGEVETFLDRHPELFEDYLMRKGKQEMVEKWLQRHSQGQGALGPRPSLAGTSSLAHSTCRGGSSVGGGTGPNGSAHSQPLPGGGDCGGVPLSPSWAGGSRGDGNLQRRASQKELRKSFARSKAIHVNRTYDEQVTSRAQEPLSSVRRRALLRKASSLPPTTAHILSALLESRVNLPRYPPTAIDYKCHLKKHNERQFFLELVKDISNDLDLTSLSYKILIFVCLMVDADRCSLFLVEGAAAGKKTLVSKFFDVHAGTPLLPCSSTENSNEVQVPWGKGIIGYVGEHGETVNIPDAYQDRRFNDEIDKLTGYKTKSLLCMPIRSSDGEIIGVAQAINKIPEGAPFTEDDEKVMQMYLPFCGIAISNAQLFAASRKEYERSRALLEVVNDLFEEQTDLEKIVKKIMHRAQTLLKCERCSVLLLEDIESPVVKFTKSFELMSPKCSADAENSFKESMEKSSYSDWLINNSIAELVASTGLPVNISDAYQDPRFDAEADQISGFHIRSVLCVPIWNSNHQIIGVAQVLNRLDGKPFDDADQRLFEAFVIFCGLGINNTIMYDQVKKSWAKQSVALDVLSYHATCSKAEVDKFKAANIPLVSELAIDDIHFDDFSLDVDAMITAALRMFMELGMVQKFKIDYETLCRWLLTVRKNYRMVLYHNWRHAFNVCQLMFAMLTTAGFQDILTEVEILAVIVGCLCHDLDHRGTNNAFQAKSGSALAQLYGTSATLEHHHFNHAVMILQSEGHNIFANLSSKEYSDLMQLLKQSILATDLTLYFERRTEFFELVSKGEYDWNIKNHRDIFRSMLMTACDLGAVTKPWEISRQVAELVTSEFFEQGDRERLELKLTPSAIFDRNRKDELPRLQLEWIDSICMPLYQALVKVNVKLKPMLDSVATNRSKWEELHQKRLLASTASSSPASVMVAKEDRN
Experiment: Inhibition of recombinant human PDE11 using [3H]cAMP as substrate by scintillation proximity assay
pKi: −log10 of the molar value.
PARAMETER_MEASURED: pKi

>>> result("COc1cc(C)c2nc3[nH]nc(C)c3c(N3CCNCC3)c2c1")
"≤ 6.11"

Task item: Looking for the measured pKi of `COc1cc(C)c2nc3[nH]nc(C)c3c(NC3CCOCC3)c2c1` , can you help?
Reply: ≤ 5.32
